So basically, if boiling point comes in under 200 °C it's 1.0, and if it's 200 °C or more it's 0.0.

Does this compound meet the criterion boiling point < 200 °C? C1O[C@@H]1[C@@H]1CO1
1.0

Does this compound meet the criterion boiling point < 200 °C? CCC(C)CCCC(C)C (centres undefined)
1.0

Does this compound meet the criterion boiling point < 200 °C? CC(C)(C)c1ccc2ccccc2c1
0.0

Does this compound meet the criterion boiling point < 200 °C? O=CNc1ccccc1
0.0

Does this compound meet the criterion boiling point < 200 °C? C=CCc1ccc2c(c1)OCO2
0.0

Does this compound meet the criterion boiling point < 200 °C? O=C1CCC(=O)N1Cl
0.0

Does this compound meet the criterion boiling point < 200 °C? O=C(OC1CCCCC1)c1ccccc1
0.0

Does this compound meet the criterion boiling point < 200 °C? C[C@H](F)Cl
1.0

Does this compound meet the criterion boiling point < 200 °C? COC(=O)CCc1ccccc1
0.0

Source of measurements: the OPERA property sets (Mansouri et al. 2018)
